Tested on: PXR:RXRa (NR concentration 270 nM, RXRa partner concentration 90 nM)
assayName: PBM binding z-score (relative to random genomic background probes); higher = stronger binding; sequences stand for … in GC…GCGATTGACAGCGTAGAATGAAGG
Note: every record was labeled by where its PBM binding z-score sits among LOW = under 0.6, MEDIUM = from 0.6 up to 3, HIGH = 3 and over

Some solved entries appear below for comparison.
sequenceentry=TCTTGTAGATCAAGCACGTTAAGAAAGCCTGAGT classification=LOW
sequenceentry=AGTCAAAGTTCATCCAGGTAACGTAAGATATGCT classification=HIGH
sequenceentry=CATACAGCGTCAGCTAGGCCAGAGTAGGGACGGC classification=LOW

Ask: Class for "GGAACGAGGGCAATTTGATAGCAGAGTTTGATGG" ?
Result: LOW

Ask: Class for "TAGCCTAGGTCATTCAGGGGCCAGTATAGAAAGC" ?
Result: MEDIUM

Ask: Class for "CGAAGTAGGTCATTGACAGGACAGTGAATAGTAA" ?
Result: MEDIUM

Ask: Class for "CAAACTAGCTCACGAAAGGTCAAAGTCGAATGAC" ?
Result: HIGH

Ask: Class for "CCATACGGGTCACGAGGTTATAGCACGACGAGCG" ?
Result: HIGH

Ask: Class for "ATATGTAGGTTACATCTGGGTCATTCAGGCTATG" ?
Result: MEDIUM

Ask: Class for "GCTTGTAGATCAAGGTTGAGAAAGACTAAGCTAA" ?
Result: LOW

Ask: Class for "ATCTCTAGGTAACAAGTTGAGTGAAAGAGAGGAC" ?
Result: LOW

Ask: Class for "CCTTACGGGTCACTCCAGATTATAGCATCGGAGT" ?
Result: MEDIUM

Ask: Class for "ACTAGCAGGCCAAGGGTCCCTCAAGATTAGTCCG" ?
Result: LOW

Ask: Class for "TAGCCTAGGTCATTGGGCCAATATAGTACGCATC" ?
Result: MEDIUM

Ask: Class for "CCTAGCAGGCCAGGGTCACTCCAGCATTTCGCTT" ?
Result: MEDIUM

Ask: Class for "CAAACTCGGTCACAGAGGTCAAAGTCCGTGCGTA" ?
Result: HIGH

Ask: Class for "ATCTCTAGGTAACCAAGTTCCGTGAATGCCGAAC" ?
Result: LOW

Ask: Class for "CGTACGAGGGCATGAGTTGATAGCAAATGCCGAT" ?
Result: LOW

Ask: Class for "CCTCCAAGGTCAGAGAGGTCAGTGAATGCCGAGT" ?
Result: HIGH

Ask: Class for "CGTCCAACGTCATAGGAGGTCAGTGAAGACAGAT" ?
Result: MEDIUM

Ask: Class for "TATACCGGGTCAAAGGCCAGAGTACGAATGTCGA" ?
Result: HIGH

* * *

Tested on: FXR:RXRa (NR concentration 270 nM, RXRa partner concentration 90 nM)
assayName: PBM binding z-score (relative to random genomic background probes); higher = stronger binding; sequences stand for … in GC…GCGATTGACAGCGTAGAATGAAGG
Tag: label 1 if measured PBM binding z-score is not below 2, label 0 if it is.

Some solved entries appear below for comparison.
sequenceentry=GCTGCTAGGTCAACTGATGGTCAGCGAAAGCTCG classification="label 1"
sequenceentry=CCTAGCAGGCCAGGGTCACTCGAGCATTTCGCTT classification="label 1"
sequenceentry=TCATATAAGTAAAAGGTGAAAGTCGGTGTGGTAA classification="label 0"
sequenceentry=CCTAGTTGTTCAAGGTCACACACGCTATAGGTAC classification="label 1"
sequenceentry=TATACAGCGTCAAAGGCCAGAGTACGAATGTCGA classification="label 0"

Ask: Form field: PBM binding z-score at least 2? Entry: "GGTGCTAGGTCAGGTTGGTCAGCTAACGGGTACG"
Result: label 0

Ask: Form field: PBM binding z-score at least 2? Entry: "CCTATTAGTTGATCATAAGGGCAACCGAAGCTCG"
Result: label 0

Ask: Form field: PBM binding z-score at least 2? Entry: "GCTGACAGGTGAAACGCAGGTAACTCAGGGTGGC"
Result: label 0

Ask: Form field: PBM binding z-score at least 2? Entry: "TCGAGTAGGTTACCAATGGGCCATTCAGCTTTCT"
Result: label 0

Ask: Form field: PBM binding z-score at least 2? Entry: "TCTGTTAGGTCAACGATGGTCAGCTAATCTGCTA"
Result: label 1

Ask: Form field: PBM binding z-score at least 2? Entry: "AGAATGAGGTTCCCAAAGATCAGGGAAACGCTTG"
Result: label 0

* * *

Tested on: PPARg:RXRa 30nM:10nM, anti-RXR (NR concentration 30 nM, RXRa partner concentration 10 nM)
assayName: PBM binding z-score (relative to random genomic background probes); higher = stronger binding; sequences stand for … in GC…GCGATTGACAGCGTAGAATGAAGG
Tag: 1.0 if measured PBM binding z-score is not below 0.2, 0.0 if it is.

Some solved entries appear below for comparison.
sequenceentry=GCGACTGGGGCATCAGCATGTTACCATAACTTAA classification=0.0
sequenceentry=TCATATAGGTAAAAGGTGACAGTCGGTGTGGTAA classification=1.0
sequenceentry=CGAACTAGGTCAGAACAGGAAAGTGAAGGATGAT classification=1.0
sequenceentry=AGTCAAAGTTCATCTAGGTACCGTAAGATATGCT classification=1.0
sequenceentry=CAAACTAGGTCCAGGTCAAAGTCGGTTTGTGCCA classification=1.0

For the next question, use this sequence.
Ask: Form field: PBM binding z-score at least 0.2? Entry: "TAGCCTAGGTCATTGGGCCAGTATTGTACGCATC"
Result: 1.0

* * *

System: RARb:RXRa (NR concentration 270 nM, RXRa partner concentration 90 nM)
assayName: PBM binding z-score (relative to random genomic background probes); higher = stronger binding; sequences stand for … in GC…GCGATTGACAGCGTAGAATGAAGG
attributeMeasured: PBM binding z-score
The answer should be a number; do not append a unit.

Ask: Fill blank: measured PBM binding z-score of the sequence "GCTGCTAGGTCAGGTTGGTCACCTAACGGGTACG" is ____.
Result: 3.39

Ask: Fill blank: measured PBM binding z-score of the sequence "CAAACTAGGTCAAGGACAAAGTCGGTTTGTGCCA" is ____.
Result: 4.15

Ask: Fill blank: measured PBM binding z-score of the sequence "TCGAGTAGGTTGCCAATGGGGCATTCAGCTTTCT" is ____.
Result: -0.201

Ask: Fill blank: measured PBM binding z-score of the sequence "CGTCCAATGTCAAGGTCAGTGAAAGAGACTCGAA" is ____.
Result: 3.69

Ask: Fill blank: measured PBM binding z-score of the sequence "ATCGAAAGGACGAAGGTGAGTATACCCACCCGAA" is ____.
Result: 1.17

Ask: Fill blank: measured PBM binding z-score of the sequence "GATACAGGGTCCGCTAGAGGCCAGAGTATGGAAA" is ____.
Result: 0.181

Ask: Fill blank: measured PBM binding z-score of the sequence "CCAGACAGGTGAGAAGGTAATTCAGCCTCGATTA" is ____.
Result: 0.555

Ask: Fill blank: measured PBM binding z-score of the sequence "GGCACGAGGGCATTCGAGTTGATAGCATGGCGAT" is ____.
Result: 1.95

Ask: Fill blank: measured PBM binding z-score of the sequence "TCTTGTATATCAACAGGAGGTTAAGAAAGATCGA" is ____.
Result: 0.806

Ask: Fill blank: measured PBM binding z-score of the sequence "TAGCCTAGGTCAGATCGGACCAGTATACGCTATA" is ____.
Result: 2.85

* * *

System: THRa homodimer (NR concentration 90 nM)
assayName: PBM binding z-score (relative to random genomic background probes); higher = stronger binding; sequences stand for … in GC…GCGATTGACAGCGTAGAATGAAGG
Note: every record was labeled by where its PBM binding z-score sits among low class (below -0.09), middle class (-0.09 to below 1), high class (1 or more)

Some solved entries appear below for comparison.
sequenceentry=ATCCAAAGGTCGACGAGGTGAGTATACACCGTTT classification="high class"
sequenceentry=CCCACTGGGCCAAAAAGGTCATTGATGCCGATAA classification="middle class"
sequenceentry=ATCGAAATGTCGAGGTGAGTATAGAGAAAGGGAA classification="middle class"
sequenceentry=TCTGCTAGGTTAACGATGGTCAGCTAATCTGCTA classification="low class"
sequenceentry=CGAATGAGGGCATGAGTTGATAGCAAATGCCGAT classification="middle class"
sequenceentry=GCTTACGGGTCATAGGTTATAGCATGAATAGAAT classification="middle class"
sequenceentry=CAAACTAGGTAAAGAGGTCAAAGTCCGCTTCCCG classification="high class"
sequenceentry=CGTAAAAGTTCAACTAAGGTAACGTAAAGCACGC classification="high class"
sequenceentry=CCTTACGGGTGACTGACAGGTTATAGCATTTGGA classification="low class"
sequenceentry=ATCGAAAGGTCGACGAGATGAGTATACACCGTTT classification="low class"

Ask: Class for "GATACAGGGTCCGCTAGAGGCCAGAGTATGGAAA" ?
Result: low class

Ask: Class for "CCTATTGGGCCATTCAGAGGTCATTGATCATATG" ?
Result: high class

Ask: Class for "AGAGTGAGGTTAAGATCAGGGAAACAGAATACAT" ?
Result: high class
